// each record: one item and its IC50 for UniProtKB G1SX67

Compound: CCCOc1ccc(S(=O)(=O)N2CCN(CCO)CC2)cc1-c1nc2c(CCCF)cn(CC)c2c(=O)[nH]1 [Example 30]
IC50: 180 pM
//
Compound: CCCOc1ccc(S(=O)(=O)N2CCN(CCCF)CC2)cc1-c1nc2c(CCC)cn(C)c2c(=O)[nH]1 [Example 37]
IC50: 640 pM
//
Compound: CCCc1cn(C)c2c(=O)[nH]c(-c3cc(S(=O)(=O)N4CCN(CCO)CC4)ccc3OCC)nc12 [Example 51]
IC50: 2060 pM
//
Compound: CCCOc1ccc(S(=O)(=O)N2CCC(CCC(=O)O)CC2)cc1-c1nc2c(CCC)cn(C)c2c(=O)[nH]1 [Example 124]
IC50: 270 pM
//
Compound: CCCOc1ccc(S(=O)(=O)N2CCN(CCO)CC2)cc1-c1nc2c(CCC)cn(C)c2c(=O)[nH]1 [Example 53]
IC50: 490 pM

----------
Substance smiles: CCOc1ccc(S(=O)(=O)N2CCN(CCCF)CC2)cc1-c1nc2c(CC)cn(CC)c2c(=O)[nH]1
melting point: 182 to 182.5 °C
--
Substance smiles: CCCc1cn(C)c2c(=O)[nH]c(-c3cc(S(=O)(=O)N4CCC(CCC(=O)O)CC4)ccc3OCC)nc12
melting point: 129 to 130.5 °C
--
Substance smiles: CCCc1cn(C)c2c(=O)[nH]c(-c3cc(S(=O)(=O)N4CCN(CCCF)CC4)ccc3OCC)nc12
melting point: 217.5 to 218 °C

----------
Observed property: melting point

Molecule: CCCOc1ccc(S(=O)(=O)N2CCN(CCO)CC2)cc1-c1nc2c(CCCF)cn(CC)c2c(=O)[nH]1 [Example 30]
Readout value: 162 to 163 °C
//
Molecule: CCCc1cn(C)c2c(=O)[nH]c(-c3cc(S(=O)(=O)N4CCN(C)CC4)ccc3OCC)nc12 [Example 1]
Readout value: 220.5 to 221 °C
//
Molecule: CCCOc1ccc(S(=O)(=O)N2CCN(C)CC2)cc1-c1nc2c(CCC)cn(C)c2c(=O)[nH]1 [Example 3]
Readout value: 183 to 183.5 °C
//
Molecule: CCOc1ccc(S(=O)(=O)N2CCN(CCCF)CC2)cc1-c1nc2c(CCCF)cn(CC)c2c(=O)[nH]1 [Example 26]
Readout value: 194 to 194.5 °C
